Test system: L1210 leukemia ip in BDF1 mice, survival T/C
Assay details: NCI In Vivo Anticancer Drug Screen. Data for tumor model L1210 Leukemia (intraperitoneal) in B6D2F1 (BDF1) mice
Test context: endpoint: mean survival time; dose: 400.0 mg/kg/injection; schedule: Q04DX002 (ip); vehicle: saline with Tween-80; higher = longer survival
Toxic doses and inconclusive results are not listed.
I'd be grateful if you could share measured T/C for these entries.

If you can, please state the reported T/C value of `c1ccc([Si]([O][Sn]([c]2ccccc2)([c]2ccccc2)[c]2ccccc2)(c2ccccc2)c2ccccc2)cc1` . 89 % of control

If you can, please state the reported T/C value of `OCCOc1ccccc1` . 91 % of control

If you can, please state the reported T/C value of `CC(=O)Nc1ccc(N(CCO)CCO)cc1` . 92 % of control
